Where do the numbers come from? From PubChem BioAssay (NCI).

# System: HCT-116 colon
# Procedure Text: NCI-60 one-dose screen, 48 h (100 = growth as untreated, 0 = no growth, -100 = all killed)
# Condition Parameters: 10 µM unless noted
The panel holds about 83,000 compounds, 20% with a hit somewhere; the sample as a whole holds those more often.
I'd appreciate it if you could supply growth values for the items below.
Numbers only, in %.

compound=Cc1ccc(C(=O)c2ccc(CC(=O)N=Nc3c(O)[nH]c4ccc(OC(F)(F)F)cc34)n2C)cc1 numeric_readout=97
compound=CCOC(=O)c1nnn(Cc2cc(=O)oc3c2ccc2ccccc23)c1C numeric_readout=89.3

Hi! Can you tell me growth for each of these compounds?
1. C=CCNC(=O)Cc1c(-c2ccc(OC)cc2)oc2c(OC)c3c(c(OC)c12)OCO3
2. COC(=O)/C=C1/SC(N2N=C(c3cccs3)CC2c2ccc(F)cc2)=NC1=O (configuration not stated)
3. O=C1C(N2CCOCC2)=C(I)C(=O)c2ncccc21

1: 92.8; 2: -15.3; 3: 49.4

====

# Tested on: CCRF-CEM leukemia
# Procedure Text: NCI-60 one-dose screen, 48 h
# Condition Parameters: 10 µM unless noted
About 83,000 compounds went through this panel and 20% of them were active in at least one assay; those are over-represented in the sample as a whole. Activity calls are given as the source filed them. Rule for the calls: active = growth percent below 10; inactive = the rest.
One label from this list, please: active, inactive

Which outcome was assigned to `CCCCCCCC/C=C\CCCCCCCCOc1ccccc1CC(=O)NCC[N+]1(C)CCOCC1` in this test? inactive

Which outcome was assigned to `Cc1cc2nc(C(Cl)Cl)nc(-c3ccc(Cl)cc3)n2n1` in this test? inactive

Which outcome was assigned to `C=C1C(=O)O[C@H]2[C@H]1CC/C(CNS(=O)(=O)c1ccc3ccccc3c1)=C\CC[C@@]1(C)O[C@@H]21` in this test? active

Which outcome was assigned to `COc1ccc(-c2nn3c(-c4cc(F)c(Cl)cc4Cl)nnc3s2)cc1` in this test? active

====

# System: PC-3 prostate
# Procedure Text: NCI-60 one-dose screen, 48 h (100 = growth as untreated, 0 = no growth, -100 = all killed)
# Condition Parameters: 10 µM unless noted
This is part of a sample that, as a whole, favours compounds with a hit. Of some 83,000 tested, about 20% had one in any assay.
growth under 60% gets YES, anything at or over 60% gets NO.

compound="CCCCCC#CC1OC23CCCCC2C(C#N)(C(=N)O3)C1(C#N)C#N (stereo not given)" assigned_class=NO
compound=Brc1ccc(/C=C(/C2=NCCN2)n2ccc3ccccc32)cc1 assigned_class=YES
compound=Cc1ccc(-c2nc3nc(-c4ccccc4)nc(N4CCN(S(=O)(=O)c5ccccc5)CC4)c3o2)cc1 assigned_class=NO
compound=CCCCCCCCCCCCCCCCCCOc1cccc(CC(=O)OCC[N+](CC)(CC)CC)c1 assigned_class=YES
compound=N#Cc1c(N)nnn1Cc1cc(=O)oc2ccc(O)cc12 assigned_class=NO

Given the entry `Cc1cccc(Cc2cnc(NC(=O)CCCOc3ccc(Cl)cc3)s2)c1` , would its reported growth be below 60%? YES

====

# Test system: SF-295 CNS
# Procedure Text: NCI-60 one-dose screen, 48 h
# Condition Parameters: 10 µM unless noted
This is part of a sample that, as a whole, favours compounds with a hit. Of some 83,000 tested, about 20% had one in any assay. Calls of active or inactive are those of the source. How the source made its calls: active means growth percent below 10; inactive means the rest.
One label from this list, please: label 1 for active, label 0 for inactive

These solved cases illustrate the format of a correct answer.
compound=CCOC(=O)c1c(-c2ccc(OC)cc2)c(C#N)c2c(C#N)c(N)nn2c1N assigned_class="label 0"
compound=Nc1nc(Nc2cccnc2)sc1C(=O)c1ccccc1F assigned_class="label 0"

Which outcome was assigned to `COC(=O)c1nc(-c2ccc(C)cc2)oc1S(=O)(=O)c1ccc(Cl)cc1` in this test? label 0

Which outcome was assigned to `COc1cc(OC)cc(-c2ccc(-c3ccc(C(=N)N)cn3)s2)c1` in this test? label 0

Which outcome was assigned to `Cc1ccc(-c2nc3nc(-c4ccc(Br)cc4)nc(N4CCCNCC4)c3o2)cc1` in this test? label 0

====

# System: LOX IMVI melanoma
# Procedure Text: NCI-60 one-dose screen, 48 h (100 = growth as untreated, 0 = no growth, -100 = all killed)
# Condition Parameters: 10 µM unless noted
This is part of a sample that, as a whole, favours compounds with a hit. Of some 83,000 tested, about 20% had one in any assay.
I'd appreciate it if you could supply growth values for the items below.
Answers are plain numbers, in %.

compound=Cc1ccc(NC(=O)c2sc3nc(C)c(C(=O)c4ccccc4)cc3c2N)cc1 reported_metric=growth numeric_readout=94.9
compound=O=C1/C(=C/c2ccc(F)c(F)c2)CN(C(=O)C(Cl)Cl)C/C1=C\c1ccc(F)c(F)c1 reported_metric=growth numeric_readout=-90.1
compound="CN(C)CCN1C(=O)c2c(c3c4ccccc4n4c3c3c2c2ccccc2n3C2CC(O)C(O)C4(C)O2)C1=O (centres undefined)" reported_metric=growth numeric_readout=1.87

What value of growth has been recorded for this entry: `N#Cc1cc(-c2ccnc(Nc3ccc(NC(=O)CCl)cc3)n2)ccc1N1CCCC1` -84.8

====

# System: NCI-H322M lung
# Procedure Text: NCI-60 one-dose screen, 48 h (100 = growth as untreated, 0 = no growth, -100 = all killed)
# Condition Parameters: 10 µM unless noted
This is part of a sample that, as a whole, favours compounds with a hit. Of some 83,000 tested, about 20% had one in any assay.
Response key: Condition met means growth >= 80%; Condition not met means growth < 80%.

compound=C=C(C)[C@@H]1CC[C@]2(C)[C@H](CC(=O)N[C@H]3[C@@H]4C[C@](C)(C(=O)OC)CC[C@]4(C)CC[C@]32C)[C@@]1(C)CCC#N assigned_class="Condition met"
compound=CCN1CCN(CC(=O)Nc2nc3ccc(NCc4ccc(C)cc4)cc3s2)CC1 assigned_class="Condition met"
compound="Cc1cnc(C(=O)NNc2nc3sc4c(c3c(=O)[nH]2)C(C)CCC4)cn1 (stereo unspecified)" assigned_class="Condition not met"

Continue with the next compound.
Would you say `COC(=O)N/N=C/c1c[n+]([O-])c2ccccc2[n+]1[O-]` shows growth at minimum 80%? Condition met

====

# System: OVCAR-8 ovarian
# Procedure Text: NCI-60 one-dose screen, 48 h (100 = growth as untreated, 0 = no growth, -100 = all killed)
# Condition Parameters: 10 µM unless noted
About 83,000 compounds went through this panel and 20% of them were active in at least one assay; those are over-represented in the sample as a whole.
Reported Metric: growth (%)
Answers are plain numbers, in %.

Answered cases to consult:
compound=Cc1ccc(/C=C2\COc3ccc(O)c(O)c3C2=O)cc1 numeric_readout=4.95
compound=COc1cc(C=O)ccc1Oc1ccc([N+](=O)[O-])cc1[N+](=O)[O-] numeric_readout=93.7
compound=NCCOCCOc1ccccc1 numeric_readout=107

// switching to the query compound
What value of growth has been recorded for this entry: O=C(CN1C(=O)S/C(=C\C(Cl)=C\c2ccccc2)C1=O)NC1C=CS(=O)(=O)C1 (centres undefined) 4.68

====

# System: BT-549 breast
# Procedure Text: NCI-60 one-dose screen, 48 h
# Condition Parameters: 10 µM unless noted
About 83,000 compounds went through this panel and 20% of them were active in at least one assay; those are over-represented in the sample as a whole. Activity calls are given as the source filed them. Rule for the calls: active = growth percent below 10; inactive = the rest.
One label from this list, please: active, inactive

molecule=Nc1nc(Nc2cccnc2)sc1C(=O)c1ccccc1F assigned_class=inactive
molecule=Cc1cc(N2CCN(CC(=O)Nc3ccc4c(ccn4Cc4ccccc4)c3)CC2)nc(N2CCCCCC2)n1 assigned_class=inactive
molecule="O=C1OCC2=C1C(c1cccc([N+](=O)[O-])c1)c1cc3c(cc1N2CCO)CCC3 (stereo unspecified)" assigned_class=inactive

Which outcome was assigned to `Nc1n[nH]c2cccc(C#Cc3cccc(C(=O)Nc4ccc(CN5CCOCC5)c(C(F)(F)F)c4)c3)c12` in this test? inactive

Which outcome was assigned to `O=C(c1cccc(Br)c1)N1CCN(c2ccnc3cc(Cl)ccc23)CC1` in this test? inactive

Which outcome was assigned to `CCOC(=O)c1c(-c2ccc(C)cc2)c(C#N)c(=O)n(-c2cccc(C(F)(F)F)c2)c1N` in this test? inactive

Which outcome was assigned to `N#Cc1ccccc1-c1ccc(Cn2c(-c3cscn3)nc3c(Cl)cccc32)cc1` in this test? inactive

Which outcome was assigned to `O=C(Nc1ccc2ccccc2c1)c1cc2ccccc2cc1O` in this test? inactive

====

# System: SN12C renal
# Procedure Text: NCI-60 one-dose screen, 48 h (100 = growth as untreated, 0 = no growth, -100 = all killed)
# Condition Parameters: 10 µM unless noted
Compounds without any hit were thinned out: in the full panel of roughly 83,000, 20% have a hit.
growth under 60% gets rule met, anything at or over 60% gets rule not met.

These solved cases illustrate the format of a correct answer.
compound=COc1ccc(/C=C(\C#N)c2cc3ccccc3[nH]2)cc1 assigned_class="rule met"
compound=Cc1c(C(C)(C)O)cn2ncnc(Oc3ccc(NC(=O)Nc4ccc(Cl)c(C(F)(F)F)c4)cc3)c12 assigned_class="rule met"
compound=Cc1ccc(/C=C/c2c(C(=O)/C=C/c3ccccc3)c(C)nc3ccccc23)cc1 assigned_class="rule met"
compound=Cc1ccc(Cc2cnc(NC(=O)c3cc(C)oc3C)s2)cc1 assigned_class="rule not met"
compound="COc1nc(=O)n(C2C=CC(=O)O2)cc1F (stereo not given)" assigned_class="rule not met"
compound=NS(=O)(=O)c1ccc(C(=O)N=Nc2c(O)[nH]c3c(F)cccc23)cc1 assigned_class="rule not met"
compound=CCOC(=O)CCCn1c(-c2ccccc2)cc(-c2ccccc2)c(C#N)c1=O assigned_class="rule not met"
compound=COc1ccc(Cl)cc1Nc1nc(C(F)(F)F)ccc1C(=O)N/N=C/c1ccc(N(C)C)cc1 assigned_class="rule not met"
compound=N=C(N)c1ccc(-c2ccc(-c3ccc(Cl)c(Cl)c3)s2)cc1 assigned_class="rule met"
compound=N=c1ccccn1CCO assigned_class="rule not met"

Given the entry `O=C(Cn1cc(CN2CCN(c3ccnc4cc(Cl)ccc34)CC2)nn1)Nc1cccc([N+](=O)[O-])c1` , would its reported growth be below 60%? rule not met

Given the entry `Cc1ccc(C(=O)c2ccc(CC(=O)N=Nc3c(O)[nH]c4ccc(OC(F)(F)F)cc34)n2C)cc1` , would its reported growth be below 60%? rule not met

Given the entry `O=C1C(=C(O)c2ccccc2)C(=O)c2ccccc21` , would its reported growth be below 60%? rule not met

Given the entry `COc1ccc(Nc2ncnc3ccc(-c4cncc(NS(C)(=O)=O)c4)cc23)cc1Cl` , would its reported growth be below 60%? rule met
